- systemUnderTest: Sko1 (UniProt Q02100)
- Sequence: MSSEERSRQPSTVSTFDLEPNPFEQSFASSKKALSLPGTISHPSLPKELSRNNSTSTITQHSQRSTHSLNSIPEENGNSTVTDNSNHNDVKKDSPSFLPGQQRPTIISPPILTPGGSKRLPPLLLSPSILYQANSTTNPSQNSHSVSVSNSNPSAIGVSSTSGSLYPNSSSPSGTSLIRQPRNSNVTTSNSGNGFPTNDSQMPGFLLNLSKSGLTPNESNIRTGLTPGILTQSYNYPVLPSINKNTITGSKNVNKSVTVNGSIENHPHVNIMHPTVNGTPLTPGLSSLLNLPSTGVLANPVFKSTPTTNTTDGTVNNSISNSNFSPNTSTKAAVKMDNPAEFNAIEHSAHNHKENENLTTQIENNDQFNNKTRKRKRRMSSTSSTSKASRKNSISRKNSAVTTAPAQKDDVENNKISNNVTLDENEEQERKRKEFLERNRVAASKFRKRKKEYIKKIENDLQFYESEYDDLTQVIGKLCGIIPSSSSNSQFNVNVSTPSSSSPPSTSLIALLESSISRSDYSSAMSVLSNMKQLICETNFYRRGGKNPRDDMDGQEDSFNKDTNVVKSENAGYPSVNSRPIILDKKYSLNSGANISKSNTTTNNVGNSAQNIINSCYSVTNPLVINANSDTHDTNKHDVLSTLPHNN
- protocolNotes: PBM E-score (8-mer binding enrichment) (E-score (-0.5 to 0.5)); higher = stronger / more preferred TF binding
- assayContext: protein concentration: 200 nM; construct: GST-full length
Over roughly 33,000 sequences, “E-score (-0.5 to 0.5)” has its median near -0.032; the highest 2% begin near 0.36. For the sample, the highest values were picked, then their nearest neighbours and some sequences at random.
measuredProperty: PBM E-score
Output spec: single numeric token, no unit.

CACGTATG
0.426

Lookup: Which PBM E-score is listed for CACTGACC ?
Found: -0.26

Lookup: Proceed to CGCTGTGC
Found: -0.202

Lookup: Ok, now ACGTTTTG
Found: 0.393

Lookup: Try CGCAGCTC next.
Found: -0.0758

Lookup: Would you mind doing CGAGTGGA as well?
Found: -0.154

###

- systemUnderTest: Sko1 (UniProt Q02100)
- Sequence: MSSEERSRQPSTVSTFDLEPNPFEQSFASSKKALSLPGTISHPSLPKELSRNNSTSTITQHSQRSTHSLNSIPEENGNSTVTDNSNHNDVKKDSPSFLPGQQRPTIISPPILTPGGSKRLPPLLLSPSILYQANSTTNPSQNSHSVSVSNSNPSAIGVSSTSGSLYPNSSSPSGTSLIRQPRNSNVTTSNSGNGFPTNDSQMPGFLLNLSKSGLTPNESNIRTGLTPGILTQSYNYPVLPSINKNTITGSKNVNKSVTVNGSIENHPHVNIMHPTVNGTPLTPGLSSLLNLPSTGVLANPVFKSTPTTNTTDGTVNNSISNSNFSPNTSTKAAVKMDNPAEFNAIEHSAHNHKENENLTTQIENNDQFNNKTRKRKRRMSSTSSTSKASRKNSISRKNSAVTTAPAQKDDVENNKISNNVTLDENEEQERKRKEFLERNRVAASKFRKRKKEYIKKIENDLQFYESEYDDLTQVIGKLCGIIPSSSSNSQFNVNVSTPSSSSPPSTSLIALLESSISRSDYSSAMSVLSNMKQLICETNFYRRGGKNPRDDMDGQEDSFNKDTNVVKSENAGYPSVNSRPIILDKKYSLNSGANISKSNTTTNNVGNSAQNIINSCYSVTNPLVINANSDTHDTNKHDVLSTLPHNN
- protocolNotes: PBM E-score (8-mer binding enrichment) (E-score (-0.5 to 0.5)); higher = stronger / more preferred TF binding
- assayContext: protein concentration: 200 nM; construct: GST-full length
In all, about 33,000 sequences were measured (“E-score (-0.5 to 0.5)”: median about -0.032, highest 2% from about 0.36 on). The full list was thinned out, with the highest values kept by preference.
PBM E-score by entry:

Lookup: I would be grateful if you could share the reported PBM E-score for GCTCTAAA .
Found: 0.0432

Lookup: Continue with ACTACTGC
Found: -0.0692

Lookup: GGTACGCA ?
Found: 0.268

Lookup: Try the sequence TGACAGAA
Found: 0.141

###

# reported PBM E-score; entries follow
- systemUnderTest: Sko1 (UniProt Q02100)
- Sequence: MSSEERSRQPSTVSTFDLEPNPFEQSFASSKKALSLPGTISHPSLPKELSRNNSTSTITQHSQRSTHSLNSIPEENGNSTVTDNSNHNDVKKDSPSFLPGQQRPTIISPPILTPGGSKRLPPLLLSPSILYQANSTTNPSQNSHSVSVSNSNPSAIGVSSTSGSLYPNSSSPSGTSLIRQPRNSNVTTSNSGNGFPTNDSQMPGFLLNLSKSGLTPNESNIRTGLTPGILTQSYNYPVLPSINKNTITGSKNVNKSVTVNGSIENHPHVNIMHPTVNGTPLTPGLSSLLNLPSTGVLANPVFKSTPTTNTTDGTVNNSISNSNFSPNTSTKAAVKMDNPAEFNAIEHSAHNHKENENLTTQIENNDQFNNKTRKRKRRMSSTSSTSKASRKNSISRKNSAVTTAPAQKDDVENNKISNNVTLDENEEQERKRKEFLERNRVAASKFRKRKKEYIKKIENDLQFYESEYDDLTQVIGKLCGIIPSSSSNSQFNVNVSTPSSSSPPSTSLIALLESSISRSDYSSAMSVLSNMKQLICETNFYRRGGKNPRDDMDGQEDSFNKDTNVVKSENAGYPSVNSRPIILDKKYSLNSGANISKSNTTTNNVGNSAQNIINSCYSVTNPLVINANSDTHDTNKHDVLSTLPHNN
- protocolNotes: PBM E-score (8-mer binding enrichment) (E-score (-0.5 to 0.5)); higher = stronger / more preferred TF binding
- assayContext: protein concentration: 200 nM; construct: GST-full length
Whole data set: some 33,000 sequences, median “E-score (-0.5 to 0.5)” near -0.032, cut for the highest 2% near 0.36. This is one part of a sample in which the highest values are shown more often than they occur.
Form field (numeric): enter value without unit.

TCCCAAAA
-0.048
ACCGGGTG
-0.224
ATGATGTC
0.446
GGAAGCTA
-0.135
ACTCGTCC
0.0764
GCCACGGA
-0.215

Lookup: // PBM E-score lookup, key: ACGCCTGA
Found: 0.15

Lookup: Repeat with GTGATGTA
Found: 0.397

###

- systemUnderTest: Sko1 (UniProt Q02100)
- Sequence: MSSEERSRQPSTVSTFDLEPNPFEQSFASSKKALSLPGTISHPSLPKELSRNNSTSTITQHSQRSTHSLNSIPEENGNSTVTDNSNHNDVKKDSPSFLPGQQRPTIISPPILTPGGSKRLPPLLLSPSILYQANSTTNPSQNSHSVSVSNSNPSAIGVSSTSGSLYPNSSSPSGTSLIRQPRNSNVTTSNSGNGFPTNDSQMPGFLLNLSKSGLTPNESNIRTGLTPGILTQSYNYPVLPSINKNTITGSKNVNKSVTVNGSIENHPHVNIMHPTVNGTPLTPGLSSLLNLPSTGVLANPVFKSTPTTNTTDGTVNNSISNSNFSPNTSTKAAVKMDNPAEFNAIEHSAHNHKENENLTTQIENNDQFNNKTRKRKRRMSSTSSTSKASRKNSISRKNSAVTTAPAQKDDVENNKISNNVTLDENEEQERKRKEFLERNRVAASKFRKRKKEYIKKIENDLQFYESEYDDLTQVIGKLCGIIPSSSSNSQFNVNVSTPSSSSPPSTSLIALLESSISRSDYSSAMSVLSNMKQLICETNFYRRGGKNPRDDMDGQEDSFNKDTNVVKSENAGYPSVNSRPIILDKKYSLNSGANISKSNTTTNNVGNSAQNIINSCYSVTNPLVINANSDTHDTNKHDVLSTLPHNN
- protocolNotes: PBM E-score (8-mer binding enrichment) (E-score (-0.5 to 0.5)); higher = stronger / more preferred TF binding
- assayContext: protein concentration: 200 nM; construct: GST-full length
Over roughly 33,000 sequences, “E-score (-0.5 to 0.5)” has its median near -0.032; the highest 2% begin near 0.36. The full list was thinned out, with the highest values kept by preference.
measuredProperty: PBM E-score
Write no unit; give the number alone.

ATAAGGAG
-0.159
ATGCGTTA
0.247
AGTGCTGG
-0.111
GTAGGGGA
-0.186
CTGATCGC
-0.0786
GCAAACCA
-0.0509

Lookup: What does the record list as PBM E-score for CAACGTTA ?
Found: 0.257

Lookup: What would you report for CACACTAC ?
Found: 0.0507

Lookup: Also CATCATGG , if possible.
Found: 0.132

###

- systemUnderTest: Sko1 (UniProt Q02100)
- Sequence: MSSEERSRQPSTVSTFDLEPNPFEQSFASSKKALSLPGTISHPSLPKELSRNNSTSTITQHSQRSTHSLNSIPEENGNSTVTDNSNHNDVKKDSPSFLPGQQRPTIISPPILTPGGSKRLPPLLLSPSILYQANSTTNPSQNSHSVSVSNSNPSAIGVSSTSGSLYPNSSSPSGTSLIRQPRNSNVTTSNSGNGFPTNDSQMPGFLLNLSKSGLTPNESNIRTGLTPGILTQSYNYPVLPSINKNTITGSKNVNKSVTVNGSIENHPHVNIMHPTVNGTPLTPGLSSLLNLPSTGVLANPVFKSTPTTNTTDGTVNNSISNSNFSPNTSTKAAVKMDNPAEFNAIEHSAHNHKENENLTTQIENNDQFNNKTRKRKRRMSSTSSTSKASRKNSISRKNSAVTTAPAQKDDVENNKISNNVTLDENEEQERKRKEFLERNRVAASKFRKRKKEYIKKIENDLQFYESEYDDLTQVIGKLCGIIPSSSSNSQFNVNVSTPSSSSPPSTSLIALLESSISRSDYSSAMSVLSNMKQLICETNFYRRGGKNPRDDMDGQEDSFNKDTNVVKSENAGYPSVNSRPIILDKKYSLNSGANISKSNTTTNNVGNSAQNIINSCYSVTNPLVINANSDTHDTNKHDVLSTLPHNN
- protocolNotes: PBM E-score (8-mer binding enrichment) (E-score (-0.5 to 0.5)); higher = stronger / more preferred TF binding
- assayContext: protein concentration: 200 nM; construct: GST-full length
Whole data set: some 33,000 sequences, median “E-score (-0.5 to 0.5)” near -0.032, cut for the highest 2% near 0.36. This excerpt belongs to a sample that is enriched for the highest values.
# Lookup of reported PBM E-score keyed by entry
# answer = number (no unit)

ACGTCTTC
0.389
CCATTACA
0.089
ACGTCTTG
0.39
TTTGCAAA
0.0584
AATGATGG
0.189

Lookup: Looking for the measured PBM E-score of AGATTACT , can you help?
Found: 0.201

Lookup: Also need AACGTGAC , thanks.
Found: 0.277

Lookup: Now the same for AGCGTAGA
Found: -0.0243

Lookup: Note, next up: CGATTACA
Found: 0.106

Lookup: Queued: GCAAGGCA
Found: 0.0267

Lookup: Try ACAGTCCG next.
Found: -0.182

Lookup: Try this sequence too: AGATGGTC
Found: -0.139

Lookup: Note, next up: CCGTCTTC
Found: -0.306

Lookup: Also, GACGTGAA please.
Found: 0.358

Lookup: What do you have for AATGATGA ?
Found: 0.328

Lookup: And the next one, AGTATTTA ?
Found: 0.164
